Run Description: In vitro inhibition of thrombin-induced human gel-filtered platelet aggregation.
pIC50: −log10 of the molar value.
Property Measured: pIC50

Record excerpt, results attached:
COC(=O)C(CC(=O)O)NC(=O)C1CCCN(C(=O)CCC2CCNCC2)C1 (stereo not given) | 6.00
O=C(O)C[C@@H](C#Cc1ccccc1)NC(=O)[C@@H]1CCCN(C(=O)CCC2CCNCC2)C1 | 7.10

1 = O=C(O)C[C@H](NC(=O)[C@@H]1CCCN(C(=O)CCC2CCNCC2)C1)c1ccc2c(c1)OCO2
2 = O=C(O)C[C@H](NC(=O)[C@@H]1CCCN(C(=O)CCC2CCNCC2)C1)c1cccs1
Lookup: Problem: Given the entries 1 and 2 , determine which has the lower reported pIC50. // output: label of the selected item
Found: 2

====

Run Description: In vitro inhibition of thrombin-induced human gel-filtered platelet aggregation.
pIC50: −log10 of the molar value.
Property Measured: pIC50

Record excerpt, results attached:
O=C(O)C(O)CNC(=O)[C@@H]1CCCN(C(=O)CCC2CCNCC2)C1 (stereo not given in full) | 6.10
CN(CCC(=O)O)C(=O)C1CCCN(C(=O)CCC2CCNCC2)C1 (stereo not given) | 4.55

P = O=C(NCCc1nnn[nH]1)C1CCCN(C(=O)CCC2CCNCC2)C1 (stereo not given)
Q = O=C(O)CCNC(=O)C1CCCN(C(=O)OCC2CCNCC2)C1 (stereo not given)
Lookup: Between P and Q , which one shows the larger pIC50 value? // output: label of the selected item
Found: Q
(Q: 5.30, P: 4.40)
